For each entry below, report its Kd value.
Target: LC3A WT (UniProt Q9H492 1-121)
Assay: ITC; peptide in the syringe (0.5 mM) titrated into 200 µl of the Atg8 homologue in the cell at a 10 times lower concentration; MicroCal iTC200, 25 °C, stirring at 1000 rpm; single-site binding model; N fixed to 1.0 when the fitting was not convergent due to weak interaction; errors are fitting errors
Conditions: both partners purified
Numbers only, in µM.

- binder: "YESPFEVIID (numbers count on: isoform e; also called RTN3245-253 WT (Δhelix); source: synthetic peptide) [RTN3245-253 (Δhelix) peptide]"
  unit of measure: "µM"
  Kd: 21.7

Next binder, please.
Requested read-out: Kd. Entry: ESPFEVIIDKAAFDKEFKDSY (numbers count on: isoform e; Tyr attached to the C terminus for quantification by absorbance at 280 nm; source: synthetic peptide) [RTN3245-264 peptide] 17.2
